From: PubChem BioAssay AID1963976

Test system: 435261-313-R-J1-PDC tumor spheroid viability;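 also: spheroids exposed to compounds for 7 days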
ASSAY TEXT: Anticancer human tumor 435261-313-R-J1-PDC patient-derived colon adenocarcinoma cell line growth inhibition [PI3K]
CONDITION: second compound 0.0316 µM; first compound 0.316 µM; stronger effect = lower value; spheroids with HUVEC and MSC

>  <COMPOUND>
CC(C)NCC(C(=O)N1CCN(c2ncnc3c2C(C)CC3O)CC1)c1ccc(Cl)cc1 (stereo unspecified) + CC(Nc1ncnc2nc[nH]c12)c1cc2cccc(Cl)c2c(=O)n1-c1ccccc1

>  <viability, T/C (%)>
101

$$$$
>  <COMPOUND>
Cn1nccc1Nc1nccc(-c2ccn(C(CO)c3ccc(Cl)c(F)c3)c(=O)c2)n1 (stereo unspecified) + CC(Nc1ccc2c(c1)OCCn1cc(N3C(=O)OCC3C(F)F)nc1-2)C(N)=O

>  <viability, T/C (%)>
28.7

$$$$
>  <COMPOUND>
CC(Cn1ccc(-c2ccc(C#N)c(Cl)c2)n1)NC(=O)c1cc(C(C)O)[nH]n1 (stereo unspecified) + CC(Nc1ccc2c(c1)OCCn1cc(N3C(=O)OCC3C(F)F)nc1-2)C(N)=O

>  <viability, T/C (%)>
93

$$$$
>  <COMPOUND>
C[C@@H](NC(=O)c1ncnc(N)c1Cl)c1ncc(C(=O)Nc2cc(C(F)(F)F)c(Cl)cn2)s1 + CC(Nc1ccc2c(c1)OCCn1cc(N3C(=O)OCC3C(F)F)nc1-2)C(N)=O

>  <viability, T/C (%)>
155

$$$$
>  <COMPOUND>
Cn1nccc1Nc1nccc(-c2ccn(C(CO)c3ccc(Cl)c(F)c3)c(=O)c2)n1 (stereo unspecified) + Cc1nc(NC(=O)N2CCCC2C(N)=O)sc1-c1ccnc(C(C)(C)C(F)(F)F)c1

>  <viability, T/C (%)>
37

$$$$
>  <COMPOUND>
CCN1CCN(Cc2ccc(Nc3ncc(F)c(-c4cc(F)c5nc(C)n(C(C)C)c5c4)n3)nc2)CC1 + COc1c(OCCCN2CCOCC2)ccc2c3n(c(=NC(=O)c4cnc(N)nc4)nc12)CCN3

>  <viability, T/C (%)>
26.6

$$$$
>  <COMPOUND>
CCCS(=O)(=O)Nc1ccc(F)c(C(=O)c2c[nH]c3ncc(-c4ccc(Cl)cc4)cc23)c1F + COc1c(OCCCN2CCOCC2)ccc2c3n(c(=NC(=O)c4cnc(N)nc4)nc12)CCN3

>  <viability, T/C (%)>
27.9

$$$$
>  <COMPOUND>
Cn1ncc(Cl)c1-c1cc(C(=O)NC(CN)Cc2cccc(F)c2)sc1Cl (stereo unspecified) + CC(Nc1ccc2c(c1)OCCn1cc(N3C(=O)OCC3C(F)F)nc1-2)C(N)=O

>  <viability, T/C (%)>
37.5

$$$$
>  <COMPOUND>
CC(Cn1ccc(-c2ccc(C#N)c(Cl)c2)n1)NC(=O)c1cc(C(C)O)[nH]n1 (stereo unspecified) + Cc1nc(NC(=O)N2CCCC2C(N)=O)sc1-c1ccnc(C(C)(C)C(F)(F)F)c1

>  <viability, T/C (%)>
83.6

$$$$
>  <COMPOUND>
CC1(C)CCC(CN2CCN(c3ccc(C(=O)NS(=O)(=O)c4ccc(NCC5CCOCC5)c([N+](=O)[O-])c4)c(Oc4cnc5[nH]ccc5c4)c3)CC2)=C(c2ccc(Cl)cc2)C1 + COc1c(OCCCN2CCOCC2)ccc2c3n(c(=NC(=O)c4cnc(N)nc4)nc12)CCN3

>  <viability, T/C (%)>
28.5

$$$$
>  <COMPOUND>
Cn1nccc1Nc1nccc(-c2ccn(C(CO)c3ccc(Cl)c(F)c3)c(=O)c2)n1 (stereo unspecified) + COc1c(OCCCN2CCOCC2)ccc2c3n(c(=NC(=O)c4cnc(N)nc4)nc12)CCN3

>  <viability, T/C (%)>
17.7

$$$$
